Hello, the source for this data is a melting point compilation (Tetko et al.; mined from patent text by program, amines drawn as free bases though some values may be those of a salt), in case you need it.

Result type: melting point

INSERT INTO measurements (compound, meas_value) VALUES
  ('CC1(C)CCC2=C(O1)c1ccccc1C(=O)C2=O', '154 to 156 °C'),
  ('Fc1ccc(-n2nc(-c3cccc(C(F)(F)F)c3)c3ncccc3c2=S)cc1', '214 to 215 °C'),
  ('CCOC(=O)C(=O)Nc1ccncc1', '110 to 113 °C'),
  ('Cn1nc(-c2ccc(F)cc2)c(-c2ccc(S(C)(=O)=O)cc2)cc1=O', '181 to 182 °C'),
  ('CCOCc1nc2c(N)nc3cc(OCCOCc4ccccc4)ccc3c2n1CC(C)(C)O', '131 to 132 °C'),
  ('Clc1ccc(C2Cc3cnc(Nc4ccc(CCN5CCOCC5)cc4)nc3-c3ccccc32)cc1Cl (centres undefined)', '166 to 167 °C'),
  ('CCOC(=O)c1c(Cl)c2cnccc2[nH]c1=O', '219 °C'),
  ('CNc1nc(Br)cc(S(=O)(=O)c2ccc(N)cc2)n1', '> 250 °C'),
  ('CCc1c(CO)nc(-c2ccc(OC)c(OC)c2)c2cc(OC)c(OC)cc12', '160 to 163 °C'),
  ('CCCc1nc2c(N)nc3ccccc3c2n1CCC(=O)OCC', '156 to 157 °C'),
  ('COc1cc(C2=C(c3cn(CCCNC(=O)C(CC(C)C)NC(=O)OC(C)(C)C)c4ccccc34)C(=O)NC2=O)cc(OC)c1OC (centres undefined)', '140 to 142 °C'),
  ('Cc1c(NC(=O)CC(C)(C)C)c(C)c2c(c1-c1ccoc1)OCC2c1ccc(C(C)C)cc1 (centres undefined)', '183 to 185 °C'),
  ('O=c1[nH]c(CCCN2CCCC2)cc2ccccc12', '117 to 119 °C'),
  ('Cc1ccc2[nH]c(=O)c(C#N)c(Cl)c2c1', '264 °C'),
  ('CCN(CCC(=O)O)C(=S)Nc1c(C)cccc1C', '115 to 118 °C'),
  ('CCCCC#CCCOc1ccc(C=O)cc1OC', '64.5 to 65.5 °C'),
  ('Cc1cc(-c2ccc(C(F)(F)F)nc2)nc(-c2cccc(-c3cccc(S(N)(=O)=O)c3)c2)n1', '220 °C'),
  ('COc1ccc2ccc(OC)c3c2c1CCC3CCNC(=O)C1CC1 (centres undefined)', '120 °C'),
  ('CCOC(=O)C1=C(C)NC(CSC(=O)CCC2CCCCC2)=C(C(=O)OCC)C1c1cccc([N+](=O)[O-])c1 (centres undefined)', '109 to 112 °C'),
  ('CCOC(=O)Cc1ccc(OCCN2CCN(c3cc(Cl)nnc3Cl)CC2)cc1', '128 to 130 °C'),
  ('CC(=O)N1c2ccc(-c3ccc(C(=O)O)cc3)cc2C(Nc2ccccc2)CC1C (centres undefined)', '246 °C'),
  ('COCC(O)CN1CCN(c2cc3c(cc2F)c(=O)c(C(=O)O)c2n3CCS2)CC1 (centres undefined)', '224 °C'),
  ('O=[N+]([O-])c1cc(O)ccc1NCCO', '142 °C'),
  ('COC(COc1ccc2oc(C(=O)O)c(C)c2c1)OC', '74 °C'),
  ('COc1cc(C(C)C(=O)O)ccc1-c1ccc(F)cc1 (centres undefined)', '133 to 136 °C'),
  ('O=C(Cn1c(=O)[nH]c2ccccc21)c1c(-c2ccccc2)nc2ccccn12', '233 to 235 °C'),
  ('COC(=O)c1ccccc1NC(=O)CN1CCN(C(=O)c2ccc(OC)c(OC)c2)CC1', '168 to 169 °C'),
  ('O=[N+]([O-])c1cccc(C(F)(F)F)c1NCC(O)CO (centres undefined)', '117 °C'),
  ('COc1ccc(OCc2cccc(OCc3ccc4ccccc4n3)c2)cc1', '83 to 85 °C'),
  ('CCOC(=O)c1cc2cc(OCCOC)cc([N+](=O)[O-])c2[nH]1', '90 to 91 °C'),
  ('CCOC(=O)c1ncc2[nH]c3ccc(C4COC(O)C4)cc3c2c1C (centres undefined)', '177 to 180 °C'),
  ('CCCn1nc(-c2ccc(Cl)c(Cl)c2)c(-n2ccnc2)c1SC', '91 to 93 °C'),
  ('CCCCCCCCCCCCCCc1ccc(C(=O)OC)cc1', '28 to 29 °C'),
  ('CCN(CCCc1c[nH]c2c(OC)cccc12)C1COc2c(F)ccc(C(N)=O)c2C1 (centres undefined)', '148 to 153 °C'),
  ('CCNC(=O)[C@@H]1CCCN1C(=O)[C@H](C)NC(=O)OCC', '126 to 128 °C'),
  ('COc1ccc(-c2cc(-c3nccs3)c(=O)n(C)c2-c2ccc(C)o2)cc1', '205 to 206 °C'),
  ('Cc1cccc(NC(=O)NCC(=O)N2[C@@H](C(=O)OC(C)(C)C)C[C@@H](C#N)[C@H]2c2ccccc2)c1 (racemic)', '150 °C'),
  ('CC(C)[C@H](NC(=O)c1ccccc1)C(=O)NCC(=O)N[C@@H](CCCNC(=N)N)C(=O)Nc1ccc2ncccc2c1', '167 to 169 °C'),
  ('CN1CCN(c2ccc(-c3nc4c(N[C@H]5[C@@H](C(N)=O)[C@@H]6C=C[C@H]5C6)c(Br)cnc4[nH]3)cc2)CC1', '215 to 218 °C');
